All values here come from patent US8431704B2.

# SUBJECT_OF_TEST: hP2X7 (Homo sapiens)
# Construct: expressed in transfected cells; host or cells: 1321N1 astrocytoma cells
# Sequence (Q99572 whole entry): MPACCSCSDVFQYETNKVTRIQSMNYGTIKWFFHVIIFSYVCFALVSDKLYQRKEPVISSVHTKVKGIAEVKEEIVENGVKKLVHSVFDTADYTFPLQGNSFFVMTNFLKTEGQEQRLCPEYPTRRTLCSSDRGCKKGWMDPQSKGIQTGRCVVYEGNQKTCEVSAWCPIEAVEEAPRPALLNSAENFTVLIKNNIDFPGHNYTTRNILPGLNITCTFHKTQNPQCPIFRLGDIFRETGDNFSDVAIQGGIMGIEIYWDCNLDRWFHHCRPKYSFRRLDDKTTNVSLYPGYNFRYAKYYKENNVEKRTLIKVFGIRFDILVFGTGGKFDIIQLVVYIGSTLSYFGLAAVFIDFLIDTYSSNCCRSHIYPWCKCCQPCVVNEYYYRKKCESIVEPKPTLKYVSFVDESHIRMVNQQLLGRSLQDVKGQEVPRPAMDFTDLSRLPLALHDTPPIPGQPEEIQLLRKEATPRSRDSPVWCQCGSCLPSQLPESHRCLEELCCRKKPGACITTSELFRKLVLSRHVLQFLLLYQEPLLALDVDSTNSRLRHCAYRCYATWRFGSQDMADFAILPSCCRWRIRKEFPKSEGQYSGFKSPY
# METHOD_DESCRIPTION: P2X7 antagonism: ligand-induced Ca2+ flux in 1321N1 astrocytoma cells overexpressing hP2X7
# Assay type: cell-based
# ASSAY_CONDITIONS: pIC50 = -log(IC50), read-out: hP2RX7pIC50 (mean pIC50 values) (converted)
MEASURED_PROPERTY: IC50 (nM)

COMPOUND: O=C(NCC(c1cnc(OCC2CC2)nc1)N1CCC(F)(F)CC1)c1cccc2nc(NC3CC3)ccc12 (stereo not shown)
NUMERIC_READOUT: 20.9
--
COMPOUND: CC(C)Oc1ncc(C(CNC(=O)c2cccc3nc(NC4CC4)ccc23)N2CCC(F)(F)CC2)cn1 (stereo not shown)
NUMERIC_READOUT: 34.7
--
COMPOUND: CC(=O)N1CCN(c2ncc(C(CNC(=O)c3cccc4nc(N5CCCC5)ccc34)N3CCC(F)(F)CC3)cn2)CC1 (stereo not shown)
NUMERIC_READOUT: 66.1
--
COMPOUND: O=C(NCC(c1cnc(N2CCOCC2)nc1)N1CCC(F)(F)CC1)c1cccc2nc(N3CCCC3)ccc12 (stereo not shown)
NUMERIC_READOUT: 115
